# measurement.notes: In Vitro GIRK Thallium Flux Assay (2.5 minutes): Human Embryonic Kidney (HEK-293) cell lines co-expressing rat mGlu receptors 2, 3, 4, 6, 7 or 8 and G protein-coupled inwardly-rectifying potassium (GIRK) channels_ENREF_54 were grown in Growth Media containing 45% DMEM, 45% F-12, 10% FBS, 20 mM HEPES, 2 mM L-glutamine, antibiotic/antimycotic, non-essential amino acids, 700 μg/ml G418, and 0.6 μg/ml puromycin at 37° C. in the presence of 5% CO2. All cell culture reagents were purchased from Invitrogen Corp. (Carlsbad, Calif.) unless otherwise noted. Compound activity at the group II (mGlu2 and mGlu3) mGlus was assessed using thallium flux through GIRK channels. Briefly, cells were plated into 384-well, black-walled, clear-bottomed poly-D-lysine-coated plates at a density of 15,000 cells/20 μL/well in DMEM containing 10% dialyzed FBS, 20 mM HEPES, and 100 units/mL penicillin/streptomycin (assay media). Plated cells were incubated overnight at 37° C. in the presence of 5% CO2. The following day, the medium was exchanged from the cells to assay buffer [Hanks' balanced salt solution (Invitrogen) containing 20 mM HEPES, pH 7.3] using an ELX405 microplate washer (BioTek), leaving 20 μL/well, followed by the addition of 20 μL/well FluoZin2-AM (330 nM final concentration) indicator dye (Invitrogen; prepared as a stock in DMSO and mixed in a 1:1 ratio with Pluronic acid F-127) in assay buffer. Cells were incubated for 1 h at room temperature, and the dye exchanged to assay buffer using an ELX405, leaving 20 μL/well. Test compounds were diluted to 2 times their final desired concentration in assay buffer (0.3% DMSO final concentration). Agonists were diluted in thallium buffer [125 mM sodium bicarbonate (added fresh the morning of the experiment), 1 mM magnesium sulfate, 1.8 mM calcium sulfate, 5 mM glucose, 12 mM thallium sulfate, and 10 mM HEPES, pH 7.3] at 5 times the final concentration to be assayed. Cell plates and compound plates were loaded onto a kinetic imaging plate reader (FDSS 6000 or 7000; Hamamatsu Corporation, Bridgewater, N.J.). Appropriate baseline readings were taken (10 images at 1 Hz; excitation, 470±20 nm; emission, 540±30 nm) and test compounds were added in a 20 μL volume and incubated for either 2.5 min or 60 min as indicated before the addition of 10 μL of thallium buffer with or without agonist. After the addition of agonist, data were collected for approximately an additional 2.5 min. Data were analyzed using Excel (Microsoft Corp, Redmond, Wash.). The slope of the fluorescence increase beginning 5 s after thallium/agonist addition and ending 15 s after thallium/agonist addition was calculated, corrected to vehicle and maximal agonist control slope values, and plotted in using either XLfit (ID Business Solutions Ltd) or Prism software (GraphPad Software, San Diego, Calif.) to generate concentration-response curves. Potencies were calculated from fits using a four-point parameter logistic equation. For concentration-response curve experiments, compounds were serially diluted 1:3 into 10 point concentration response curves and were transferred to daughter plates using an Echo acoustic plate reformatter (Labcyte, Sunnyvale, Calif.). Test compounds were applied and followed by EC80 concentrations of glutamate.
recorded.metric: EC50 (nM)

O=C(O)c1cc(F)cc(-c2cccc(-c3nc(-c4ccoc4)cc(C(F)(F)F)n3)c2)c1 | 2210

* * *

Parameter EC50: see the listing below.
# measurement.notes: In Vitro GIRK Thallium Flux Assay (2.5 minutes): Human Embryonic Kidney (HEK-293) cell lines co-expressing rat mGlu receptors 2, 3, 4, 6, 7 or 8 and G protein-coupled inwardly-rectifying potassium (GIRK) channels_ENREF_54 were grown in Growth Media containing 45% DMEM, 45% F-12, 10% FBS, 20 mM HEPES, 2 mM L-glutamine, antibiotic/antimycotic, non-essential amino acids, 700 μg/ml G418, and 0.6 μg/ml puromycin at 37° C. in the presence of 5% CO2. All cell culture reagents were purchased from Invitrogen Corp. (Carlsbad, Calif.) unless otherwise noted. Compound activity at the group II (mGlu2 and mGlu3) mGlus was assessed using thallium flux through GIRK channels. Briefly, cells were plated into 384-well, black-walled, clear-bottomed poly-D-lysine-coated plates at a density of 15,000 cells/20 μL/well in DMEM containing 10% dialyzed FBS, 20 mM HEPES, and 100 units/mL penicillin/streptomycin (assay media). Plated cells were incubated overnight at 37° C. in the presence of 5% CO2. The following day, the medium was exchanged from the cells to assay buffer [Hanks' balanced salt solution (Invitrogen) containing 20 mM HEPES, pH 7.3] using an ELX405 microplate washer (BioTek), leaving 20 μL/well, followed by the addition of 20 μL/well FluoZin2-AM (330 nM final concentration) indicator dye (Invitrogen; prepared as a stock in DMSO and mixed in a 1:1 ratio with Pluronic acid F-127) in assay buffer. Cells were incubated for 1 h at room temperature, and the dye exchanged to assay buffer using an ELX405, leaving 20 μL/well. Test compounds were diluted to 2 times their final desired concentration in assay buffer (0.3% DMSO final concentration). Agonists were diluted in thallium buffer [125 mM sodium bicarbonate (added fresh the morning of the experiment), 1 mM magnesium sulfate, 1.8 mM calcium sulfate, 5 mM glucose, 12 mM thallium sulfate, and 10 mM HEPES, pH 7.3] at 5 times the final concentration to be assayed. Cell plates and compound plates were loaded onto a kinetic imaging plate reader (FDSS 6000 or 7000; Hamamatsu Corporation, Bridgewater, N.J.). Appropriate baseline readings were taken (10 images at 1 Hz; excitation, 470±20 nm; emission, 540±30 nm) and test compounds were added in a 20 μL volume and incubated for either 2.5 min or 60 min as indicated before the addition of 10 μL of thallium buffer with or without agonist. After the addition of agonist, data were collected for approximately an additional 2.5 min. Data were analyzed using Excel (Microsoft Corp, Redmond, Wash.). The slope of the fluorescence increase beginning 5 s after thallium/agonist addition and ending 15 s after thallium/agonist addition was calculated, corrected to vehicle and maximal agonist control slope values, and plotted in using either XLfit (ID Business Solutions Ltd) or Prism software (GraphPad Software, San Diego, Calif.) to generate concentration-response curves. Potencies were calculated from fits using a four-point parameter logistic equation. For concentration-response curve experiments, compounds were serially diluted 1:3 into 10 point concentration response curves and were transferred to daughter plates using an Echo acoustic plate reformatter (Labcyte, Sunnyvale, Calif.). Test compounds were applied and followed by EC80 concentrations of glutamate.
# settings: HEK293, 2.5 min
recorded.metric: EC50 (µM)

Fc1cccc(-c2cccc(-c3nc(-c4ccccc4)n(-c4ccccc4)n3)c2)c1 | 3.11
Cc1cc(NC(=O)OC(C)(C)C)c(NC(=O)CC(=O)c2cccc(Oc3ccccc3)c2)cc1C(F)(F)F | 2.62
Fc1ccc(-c2cccc(-c3csc(-c4ccc(C(F)(F)F)nc4)n3)c2)cc1 | 3.11
Cc1cc(NC(=O)OC(C)(C)C)c(NC(=O)CC(=O)c2cccc(OCc3ccccc3)c2)cc1C(F)(F)F | 2.93
